Values compiled from the supplement of paper PMC10567573.

B1: PTPN9 (parent)
chain: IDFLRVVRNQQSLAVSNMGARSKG

Variants of: B1
Test: protein stability index of a GFP-peptide fusion (GPS, HEK-293T) (PSI 1-6); higher = more stable;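 further: lentivirally expressed fusions sorted by FACS into six bins by GFP to DsRed ratio, PSI derived from sequencing read proportions per bin multiplied by bin number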
Settings: c terminus: a fixed tail appended
assay readout: protein stability index

Query :: State the recorded protein stability index for this entry: V15G
Result :: 2.83

Query :: State the recorded protein stability index for this entry: G24Q
Result :: 2.72

Query :: State the recorded protein stability index for this entry: F3H
Result :: 4.36

Query :: State the recorded protein stability index for this entry: R8S
Result :: 1.8

Query :: State the recorded protein stability index for this entry: S12K
Result :: 2.55

Query :: State the recorded protein stability index for this entry: F3V
Result :: 3.78

Query :: State the recorded protein stability index for this entry: R5F
Result :: 2.88

Query :: State the recorded protein stability index for this entry: S22Q
Result :: 2.86

Query :: State the recorded protein stability index for this entry: Q11C
Result :: 1.91

Query :: State the recorded protein stability index for this entry: M18G
Result :: 2.85

Query :: State the recorded protein stability index for this entry: V7N
Result :: 3.53

Query :: State the recorded protein stability index for this entry: A14L
Result :: 1.76

Query :: State the recorded protein stability index for this entry: V6G
Result :: 3.53

Query :: State the recorded protein stability index for this entry: R5G
Result :: 2.81

Query :: State the recorded protein stability index for this entry: V7P
Result :: 2.94

Query :: State the recorded protein stability index for this entry: R5Y
Result :: 2.54

Query :: State the recorded protein stability index for this entry: N17I
Result :: 2.09
